TESTED_SYSTEM: Jak2 (UniProt O60674)
Sequence (O60674 whole entry, looked up): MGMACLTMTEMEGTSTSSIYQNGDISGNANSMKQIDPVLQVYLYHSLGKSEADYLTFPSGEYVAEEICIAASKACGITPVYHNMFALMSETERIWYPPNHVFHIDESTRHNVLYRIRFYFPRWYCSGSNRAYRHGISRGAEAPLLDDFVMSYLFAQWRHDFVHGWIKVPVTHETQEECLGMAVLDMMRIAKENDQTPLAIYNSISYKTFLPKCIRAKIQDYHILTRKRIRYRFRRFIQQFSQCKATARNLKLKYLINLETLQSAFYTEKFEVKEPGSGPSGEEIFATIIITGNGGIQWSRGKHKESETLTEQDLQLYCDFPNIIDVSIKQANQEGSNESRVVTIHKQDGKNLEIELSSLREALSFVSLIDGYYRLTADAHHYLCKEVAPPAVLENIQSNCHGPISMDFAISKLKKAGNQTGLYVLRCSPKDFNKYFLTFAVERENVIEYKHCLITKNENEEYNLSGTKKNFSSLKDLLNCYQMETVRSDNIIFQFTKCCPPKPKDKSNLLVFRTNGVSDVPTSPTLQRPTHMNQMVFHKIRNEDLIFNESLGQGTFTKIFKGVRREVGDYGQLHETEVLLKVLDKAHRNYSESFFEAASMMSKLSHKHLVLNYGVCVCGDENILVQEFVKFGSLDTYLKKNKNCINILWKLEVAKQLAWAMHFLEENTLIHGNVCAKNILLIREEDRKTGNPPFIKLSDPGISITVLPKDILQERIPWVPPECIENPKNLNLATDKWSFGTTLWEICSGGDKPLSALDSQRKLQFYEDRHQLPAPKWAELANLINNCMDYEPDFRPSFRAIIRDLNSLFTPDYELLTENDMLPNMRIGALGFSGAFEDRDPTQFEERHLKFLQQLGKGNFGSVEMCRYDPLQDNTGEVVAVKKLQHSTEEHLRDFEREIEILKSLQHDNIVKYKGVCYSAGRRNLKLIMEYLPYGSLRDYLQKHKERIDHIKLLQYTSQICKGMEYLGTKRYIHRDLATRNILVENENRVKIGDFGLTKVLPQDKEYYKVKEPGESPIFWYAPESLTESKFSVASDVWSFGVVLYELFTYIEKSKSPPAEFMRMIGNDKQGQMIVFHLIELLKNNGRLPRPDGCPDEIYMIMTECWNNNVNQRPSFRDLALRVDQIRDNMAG
PROTOCOL_DESCRIPTION: phosphorylation enrichment, bacterial display (enrichment ratio); higher = better substrate or ligand; peptides without Tyr show the background;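 also: 11-residue human phosphosite peptides and single-mutation variants displayed on the E. coli surface, counted by deep sequencing, each peptide's frequency after selection divided by its frequency in the unselected input library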;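 also: frequency after pTyr selection over input frequency; kinase dosed for 20-30% of maximal phosphorylation in three min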
MEASUREMENT_NAME: phosphorylation enrichment

TDEFEYDELIV [TGM1_Y136_YF] ... 1.34
DLSEVYKPCRK [CCDC93_Y176_R179C] ... 0.829
TPGPNYRPGFN [USH2A_Y463_YF] ... 0.675
HTVVSYAKVRA [CLOCK_Y378_E380K] ... 1.04
EPDSLYGCGGG [ATM_Y2019] ... 1.11
DQVEQYNKELE [LMNA_Y259_K260N] ... 1.17
VNLVLHLSIAK [FBXO15_Y496_Y496H] ... 1.36

---

In this section, each of the sequences is paired with its reported phosphorylation enrichment.
Test system: Fer (mouse)
PROTOCOL_DESCRIPTION: phosphorylation enrichment, bacterial display (enrichment ratio); higher = better substrate or ligand; peptides without Tyr show the background
MEASUREMENT_NAME: phosphorylation enrichment

TPGPNYRPGFN [USH2A_Y463_YF] ... 0.498
LISVSYDDWDY [GRIN2A_Y281] ... 4.25
FSALDYKIFYY [WDPCP_Y210_L205F] ... 0.529
EAEPYYRSLRD [NPHS1_Y1139] ... 0.428
TLKVGYKEKQR [EPHA3_Y659_T660K] ... 0.358
LTERGYSFTTK [ACTG1_Y198_T203K] ... 2.1
SLGKGYSVGGC [MC4R_Y35_D37V] ... 0.484
VLVSQYEKLNA [AMZ2_Y26] ... 0.417
RSIGEYDVLRG [PRKDC_Y2936] ... 0.428
TFYQMYDKGLV [IARS2_Y231] ... 1.33
FALAEYTEVKT [ALDH1A3_Y497_YF] ... 0.567
KRGVSYILKLA [SERPINB1_Y84_A82V] ... 0.524
IKKFKYRIEEH [GJA1_Y137_G138R] ... 0.361
FTRNFYVRAVL [CYBA_Y88_YF] ... 0.689

---

Test system: c-Src
PROTOCOL_DESCRIPTION: phosphorylation enrichment, bacterial display (enrichment ratio); higher = better substrate or ligand; peptides without Tyr show the background
MEASUREMENT_NAME: phosphorylation enrichment

AIYRRYSKFFD [SH3PXD2B_Y45] ... 0.636
QGCSIYKDYYR [PLA2G2D_Y82] ... 4.85
DTYDPYLDVAL [USP36_Y268] ... 1.43
SWKRRYFLLRA [APBB1IP_Y331] ... 0.713
HSDYQYSQRSQ [PKP2_Y168] ... 0.519
FPHVIYARLWR [SMAD4_Y95] ... 5.17
YRGYSYDDIPD [TMEM230_Y112] ... 0.463
DGMADYSDPSY [CDC5L_Y459] ... 0.538
NIFSFYLSRDP [CTSD_Y232] ... 0.409
KSEFAYEIFDK [MYOM2_Y1024_L1022F] ... 2.1
FSALDYKIFYY [WDPCP_Y210_L205F] ... 0.763
YQLPYYNTVPS [BMPR1A_Y458_M460T] ... 3.46
CTTSHYNYMCN [TP53_Y234_I232S] ... 0.441
AKNKDYMSFIR [GNE_Y197_I200F] ... 0.972
NVKGIYAVGDV [GSR_Y371] ... 3.73
SAAAIYTVRHP [PMP22_Y117] ... 6.41
DERQPYAHMNG [IGF1R_Y1346] ... 0.376
ANLAKYGNPNE [BCHE_Y505_F502L] ... 0.306
IDSTPYGQWYE [RPS8_Y109_R110G] ... 3.33
SLEKGYELPDG [ACTC1_Y242_S241G] ... 0.368
WFKKFYDANFD [MAPRE2_Y158_YF] ... 0.368
KKHFSYAWPFY [BRDT_Y291] ... 0.375
GYKVRYATWSI [FGFR1_Y210] ... 0.582
WAMLAYNRSKL [WWOX_Y293] ... 0.266
CEHRGYLYLAI [TEK_Y897] ... 0.527
ETKGDYEKILV [ANXA1_Y335] ... 0.523
GRTNIYNNKKD [SLC26A3_Y520_K521N] ... 0.435
ECKASCPGKIT [PRSS3_Y232_Y232C] ... 0.359
AFHGEYIPTVF [RAC2_Y32_P29H] ... 0.419
KPLMPCMRFSR [SMARCE1_Y73_Y73C_YF] ... 0.469
KAIMTYVFSFF [ACTN4_Y260_S262F_YF] ... 0.425
GDNNIYVTKII [DLG1_Y349_S347N] ... 0.93
EPFEVYRIVPE [IRF8_Y110_K108E_YF] ... 3.68
QGLRLYRPHLA [BTK_Y617] ... 0.438
DEYLEYRRIVG [FAM221A_Y20] ... 1.07
KPEKTYGLRNE [CEP43_Y267_K271N] ... 0.439
KLPYPYDDPFS [GPX2_Y127] ... 0.546
ADDSYYTVRSA [ZAP70_Y493_A495V] ... 2.45
DEEYEYMNRRR [ERBB3_Y1199] ... 0.454
WRPFGYPCRRR [BCS1L_Y181_R183C] ... 0.517
KDHPDYKYQPR [SOX10_Y171] ... 0.412
DPADRYLTEQY [CDKL5_Y286_C291Y] ... 0.477
RYVTRSIYNRE [HLA-DQB1_Y62_Y62S] ... 0.705
CLEKEYFDQHF [NPC1_Y394_R389C] ... 0.585
PVRIAYDRPRG [SUGP2_Y985] ... 0.609
REVPVYTDSEP [FAM120B_Y368] ... 0.872
EFGRRYGFSCQ [CCDC93_Y209_R213C_YF] ... 0.468
ADYPDYKYRPR [SOX11_Y116] ... 0.409
VDLSKCITTIA [FAS_Y232_Y232C] ... 0.308
EREYKYDAHNY [OAT_Y50_G51D] ... 0.367
PYIDSYEKDVA [PGM1_Y521_L516P] ... 0.703
MTFVFYRENLR [NLRP14_Y443_YF] ... 0.288
IGEGTYGQVYK [CDK13_Y716] ... 9.38
ATARPYSPFII [LRP5_Y1528_R1529S_YF] ... 0.633
TLDTDYQMTKR [ADA_Y308] ... 0.35
GIFEDYVEGLR [MYL6_Y89_T85I_YF] ... 0.536
SHSMRYFYTAV [HLA-C_Y31_D33Y] ... 0.928
DRIVNYSRASV [ATP7A_Y1459_I1464V] ... 0.468
